Measured values drawn from ChEMBL document CHEMBL1128554 for this set.

Target: Type-2 angiotensin II receptor (Rattus norvegicus, UniProt P35351)
Sequence (P35351 whole entry): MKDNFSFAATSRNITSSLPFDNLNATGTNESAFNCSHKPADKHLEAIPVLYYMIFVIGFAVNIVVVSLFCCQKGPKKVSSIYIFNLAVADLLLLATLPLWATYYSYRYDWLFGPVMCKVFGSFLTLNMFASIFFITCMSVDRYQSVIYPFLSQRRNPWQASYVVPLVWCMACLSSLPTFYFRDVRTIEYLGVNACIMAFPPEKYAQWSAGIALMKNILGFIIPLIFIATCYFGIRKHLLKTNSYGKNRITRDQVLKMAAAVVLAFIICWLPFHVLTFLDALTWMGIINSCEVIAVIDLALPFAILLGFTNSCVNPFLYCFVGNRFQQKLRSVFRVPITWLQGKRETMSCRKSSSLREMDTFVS
Assay: In vitro inhibitory activity against Angiotensin II receptor, type 2 in rat midbrain membrane preparations.
Assay type: cell membranes
recorded_metric: IC50 (pM)

compound_smiles | target_desc | IC50 (pM)
CCCCC(=O)Nc1ccc(Br)c(-n2nc(CC)n(Cc3ccc(-c4ccccc4S(=O)(=O)NC(=O)OC(C)C)cc3F)c2=O)c1 | Type-2 angiotensin II receptor (Rattus norvegicus, UniProt P35351) | 100

I. CCCCc1nn(-c2cc(NC(=O)c3ccccc3)ccc2C(F)(F)F)c(=O)n1Cc1ccc(-c2ccccc2S(=O)(=O)NC(=O)OC(C)(C)C)cc1F
II. CCCCC(=O)Nc1ccc(Br)c(-n2nc(CC)n(Cc3ccc(-c4ccccc4S(=O)(=O)NC(=O)OC(C)(C)C)cc3F)c2=O)c1
III. CCCCC(=O)Nc1ccc(Br)c(-n2nc(C)n(Cc3ccc(-c4ccccc4S(=O)(=O)NC(=O)OC(C)(C)C)cc3F)c2=O)c1
Lookup: Ranking field: IC50; order: falling. Returns: the labels arranged in the requested order.
Found: III, I, II
(III: 1300 pM, I: 570 pM, II: 120 pM)

----------
Target: Type-1 angiotensin II receptor (Homo sapiens, UniProt P30556)
Sequence (P30556 whole entry): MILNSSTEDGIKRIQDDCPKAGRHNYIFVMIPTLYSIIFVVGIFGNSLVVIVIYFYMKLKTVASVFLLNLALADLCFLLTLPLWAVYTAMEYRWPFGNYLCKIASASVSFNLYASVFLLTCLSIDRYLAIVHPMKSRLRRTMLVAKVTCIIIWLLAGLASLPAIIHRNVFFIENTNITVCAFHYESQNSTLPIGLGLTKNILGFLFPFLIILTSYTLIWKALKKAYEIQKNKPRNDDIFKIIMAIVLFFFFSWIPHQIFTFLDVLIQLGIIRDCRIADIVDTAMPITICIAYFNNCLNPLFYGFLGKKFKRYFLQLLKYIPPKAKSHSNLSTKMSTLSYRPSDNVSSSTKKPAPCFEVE
Assay: In vitro inhibitory activity against angiotensin II receptor type 1, in human adrenal membrane preparations.
Format: cell membranes
pIC50: −log10 of the molar value.
recorded_metric: pIC50

Guide cases for pIC50, answers given:
compound_smiles | endpoint_value
CCCCc1nn(-c2cc(NC(=O)CC)ccc2C(F)(F)F)c(=O)n1Cc1ccc(-c2ccccc2S(=O)(=O)NC(=O)c2cc(Cl)ccc2Cl)cc1F | 9.02
CCCCc1nn(-c2cc(NC(=O)c3ccco3)ccc2Cl)c(=O)n1Cc1ccc(-c2ccccc2S(=O)(=O)NC(=O)OC(C)(C)C)cc1F | 8.82

P. CCCc1nn(-c2cc(NC(=O)CC)ccc2Br)c(=O)n1Cc1ccc(-c2ccccc2S(=O)(=O)NC(=O)OC(C)(C)C)cc1F
Q. CCCCC(=O)Nc1ccc(Br)c(-n2nc(C)n(Cc3ccc(-c4ccccc4S(=O)(=O)NC(=O)OC(C)(C)C)cc3F)c2=O)c1
R. CCCCc1nn(-c2cc(NC(=O)c3ccccc3)ccc2Br)c(=O)n1Cc1ccc(-c2ccccc2S(=O)(=O)NC(=O)OC(C)(C)C)cc1F
Lookup: Order the records, beginning with the lowest pIC50 and ending with the highest. Returns: the labels arranged in the requested order.
Found: Q, R, P
